All figures here come from the MegaScale stability set (Tsuboyama et al. 2023).

B1: EHEE_rd2_1257 (parent)
chain: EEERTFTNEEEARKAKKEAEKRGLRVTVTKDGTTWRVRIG

# Variants of: B1
# Experiment summary: folding stability dG (cDNA display proteolysis); higher = more stable
# Experimental conditions: PBS, room temperature
Quick rule for you: folding stability dG at 2 kcal/mol or higher means Criterion met, lower means Criterion not met.

// below: answered variants
1) K30Q | Criterion met
2) E9G | Criterion not met
3) K14S | Criterion not met
4) V26W | Criterion not met
5) E2S | Criterion met
6) E2F | Criterion met
7) R4M | Criterion met
8) D31F | Criterion not met

Does W35D have a reported folding stability dG of at least 2 kcal/mol? Criterion not met

// inclusive: folding stability dG at least 2 kcal/mol? input: E10G Criterion not met

Quick check, folding stability dG >= 2 kcal/mol? R36L Criterion met

Is folding stability dG for G32K at or above 2 kcal/mol? Criterion not met

Please tell me: is the variant E20I at or over 2 kcal/mol in terms of folding stability dG? Criterion not met

Is folding stability dG for K17D at or above 2 kcal/mol? Criterion met

Is it the case that E1G has folding stability dG reaching or exceeding 2 kcal/mol? Criterion met

Is folding stability dG for N8M at or above 2 kcal/mol? Criterion not met
